System: MS2 coat protein
Test Summary: apparent KD of MS2 coat protein; higher = weaker reporter binding
Condition Summary: Eterna round: R107; input ligand: theophylline 2 mM
Assay Metric: apparent KD of MS2 coat protein (µM)
Only the number, expressed in µM, is required.

Use the examples below as a reference point.
CGUGGUGGGACGGAUACCAGCCACCGCGGCAACGCAACAUGAGGAUCACCCAUGUUGGGUGGCCCUUGGCAGCUGUGCUGCGACG [#1 Same State - Theophylline B Attempt #28 (HarryS)] ... 0.0342
UUUAAUUUAAUAGAUACCAGCUAAUAAUAAUCCCGGAGGACAUGAGGAUCACCCAUGUGGAGCCCUUGGCAGCUAAAAUAAAUUU [Exclusion - Theophylline B] ... 0.0224
AACGCGGUGAUGGUAGCCGGACGCUAGGUACGAGGACCGGUACGGCCGCCACUCGGAGUCCUACGACAUGAGGAUCACCCAUGUA [Same State Trp A GF15] ... 0.145
AGAGUCUAGUCGGCCGCCACUCAUGUCCAAUGGACAUGAGGAUCACCCAUGUACCGAAGGUACAUGAGGACCGGGACUGGACUCA [Omei Tryp B SS C v6] ... 0.33

[Q] Which apparent KD of MS2 coat protein value belongs to UACUUGCUGACGGCCGCCACUAGAACAUGAGGAUCACCCAUGUAGGUCCUAGAUUCCUCAUGAACUAGGACCGGGUCAGCAAGAU [(Trp1)-(Ms2)-(T)'-(M)'-(Trp2)_Design15] ?
[A] 0.221

[Q] Which apparent KD of MS2 coat protein value belongs to AAUAAUAAGGCGGCCGCCACUAAACAUGAGGAUCACCCAUGUCUCGAGCGCAUGCAUAAGGGAUGUAGGACCGGGCCAAUAAUAA [Exclusion - Tryptophan B (Freestyle 2)] ?
[A] 0.0279

---

Tested on: K4 kissing-loop RNA reporter
Test Summary: apparent KD of K4 kissing-loop reporter; higher = weaker reporter binding
Condition Summary: Eterna round: R107; input ligand: arginine 13.2 mM
Parameter apparent KD of K4 kissing-loop reporter: see the listing below.
Only the number, expressed in nM, is required.

GCGCGGCCCAGUGAUGUUGGGCCUCGGAGACGAGGACCGGUACGGCCGCCACUCGUCCGCGCAGCUGAGGCAAAAGCCUCGGCAA [Omei KL Tryp A SS B v6] ... 190
UUCAGGUGUUCGGCCGCCACUCCAGUGAUGUUGGAGUGGCUUCACAAGGGCCAGGACAAUGUAAGGAGGACCGGGAAUAUCGCAG [Quonerar] ... 116
AGCAGGAGUGAUGUUCCUGUGGCAUAAGUUCGAGGACCGGUACGGCCGCCACUCGUAACAUUAAUCCGUCCUUGAUCAGAUAAGA [theeternabot_sameState_KL_Trp_A_12] ... 186
AGAUUCGACACGGCCGCCACUUCCGGUGGCUGGUGUCAUGGUGCGCGUGAGUGAUGUUUAUGUGGAAGGACCGGGUGUUGAGUCU [whbob_Ex_Tryp_B_w41] ... 525
GGUAGCAUGGCGGCCGCCACUACCUAGUGAUGUUAGGCUGUGGACAUAGGAGCAAGACAAAUAUGUAGGACCGGGCCAUGCUACC ... 92.8

# next sequence below
[Q] Which apparent KD of K4 kissing-loop reporter value belongs to UGACUGGACUGAAGGAGCGGGCGAGACAAAGUCUCGAACUCCUAGUGAUGUUAGGAAAUAACCCAGGUAGGUCGCAGUCUAGUCU [ArgBS 7 #SwitchBubble #StaticStem #DoubleMagnet] ?
[A] 104

---

Parameter apparent KD of MS2 coat protein: see the listing below.
Test system: MS2 coat protein
Test Summary: apparent KD of MS2 coat protein, switch ON state; designed switch direction (-1 OFF switch, 1 ON switch): -1; higher = weaker reporter binding
Condition Summary: FMN input: 0 or 200 uM; Eterna round: R93 (includes R88 designs)
Only the number, expressed in nM, is required.

Use the examples below as a reference point.
AGUGAGUCAGGAUAUUAGUGAAGAAUAAAAGAAAUAACAACUAAGAAGGGACAUGAGGAUCACCCAUGUACACA [May 58] ... 26
CACGUACAUGAGGAUCACCCAUGUUAGGAUAUGCCGGGUAAGAGAAAACUAAAAAUCCGCAGAAGGGACGAAAC [Bilbo Confounded 15 - Jieux - Exclusion 1] ... 32
AUCAUGUAAGGAUAUGUAAGAAAAGAAAAGAAAGAAAAGAAACAGAAGGUACAUGAGGAUCACCCAUGUAAGAA [EteRNA is fun!] ... 26.5

[Q] Which apparent KD of MS2 coat protein value belongs to CAGUACUGAGGAUAUACAUGAGGAUCACCCAUGUGAAAAAGCUACGAAAGUAGCAAAUGUAGAAGGCAGUACUG [Ex3: 806] ?
[A] 28.9

---

Parameter apparent KD of K4 kissing-loop reporter: see the listing below.
Test system: K4 kissing-loop RNA reporter
Test Summary: apparent KD of K4 kissing-loop reporter; higher = weaker reporter binding
Condition Summary: Eterna round: R107; input ligand: arginine 13.2 mM
Only the number, expressed in nM, is required.

AUUAAUAUCACGGCCGCCACUGUAUAUUGUUUUUAUAUUUAGAAUAAUUGCCAGUGAUGUUGGAACAGGACCGGGUGAGUUUAUA [#28 K4 Tryptophan B Same State] ... 434
UUAUUAUUCAGUGAUGUUGAAUUUAUUUCAGAGGAUAUGCAUAAAUGCAGAAGGCUGUAAUACUAUACUUUAAUAAAUUAAAUUU [JR_SSFMNA_Sub018] ... 250
UGUGAUGUGUAGAGUGAUGUUUUGAAGGAUACCAGAGUGUUGUUAUUCCCUUGGCAGCUUGAGUGAUGUUUGAUGUUGUUGUUGU [efvrmullin] ... 120

[Q] Request body: readout apparent KD of K4 kissing-loop reporter, system K4 kissing-loop RNA reporter, query UUAGUCUAGAGAAGGAGCGCAGUGAUGUUGCGAAUAAUAAUAAUAAUAAAUAAAUAAUCGAUGCAGGUAGGUCGCUCUAGACAUU [AK1 Exc Arginine B] . Return the value.
[A] 422

[Q] Request body: readout apparent KD of K4 kissing-loop reporter, system K4 kissing-loop RNA reporter, query GUAUCGCUAGGAGGAUAUUUCAAAUAAUAAAUAAAUGGAUAUUCGGAGUGAUGUUCCGAUUUACGGAAAGAAGGCCUAGUGAUAC [FMN B 2] . Return the value.
[A] 143

[Q] Request body: readout apparent KD of K4 kissing-loop reporter, system K4 kissing-loop RNA reporter, query GCGGUGUUAUGCCCGAGGGUAUAGUUGCCAAAGGAUAUGAUUGUUGUCAGAAGGUUGCGCUUGAUCAGUGAUGUUGGUCUCCAAC [theeternabot_sameState_KL_FMN_A_12] . Return the value.
[A] 275

---

System: MS2 coat protein
Test Summary: apparent KD of MS2 coat protein; higher = weaker reporter binding
Condition Summary: Eterna round: R107; input ligand: theophylline 20 uM
Param threshold (50 nM) applies to apparent KD of MS2 coat protein; output true when value >= threshold, false when value < threshold.

Use the examples below as a reference point.
AAAACACAUGAGGAUCACCCAUGUCGUGAUACCAGUCAACAUGAGGACCCUUGGCAGCAUAAAAUGGGUAACAUGAGGAUAACCC [AstrosEXyTheA#3] ... true
GCUAGGUCUACGGCCGCCACUAGACAUGGGUAAGACAUGAGGAUCACCCAUGUACUACGAGUGCAUAGGACCGGGUAGACCUAGC [SSTB NP+V+V2 #19 +-Same Structure] ... true
AGCACUGUGACGGCCGCCACUACAUAAAUUGGGUGGUCAGGUUCAUUACAUGAGGAUCACCCAUGUAGGACCGGGUCUCAGUGCA [Omei Trp Exc B A v8] ... false

[Q] Does GCAGUGGGUUAUAAGUAAUAGAAUUCUGAAGGAGCGUGAUGAAACACAGGUAGGUCGCAGGAACAUGAGGAUCACCCAUGUACGG [Same State Arginine A GF20] have a reported apparent KD of MS2 coat protein of at least 50 nM?
[A] true

[Q] Does UCAUAAGUACCGGUCCUCAGAUCCUCAUGACGAGGACCGGUACGGCCGCCACUCGAAACAUGAGGAUCACCCAUGUAAUAAUACU [Brourdmod15] have a reported apparent KD of MS2 coat protein of at least 50 nM?
[A] false

[Q] Does CGGUCGGUCGGCCGGUGAUUAUGGGAUGAAGGAGCGUGGGAAGCUACAGGUAGGUCGCAUCCGAACCAUGAGGAUCACCCAUGGU [SSArg A #23Alt-Ms2 Mod] have a reported apparent KD of MS2 coat protein of at least 50 nM?
[A] false

---

Parameter apparent KD of K4 kissing-loop reporter: see the listing below.
System: K4 kissing-loop RNA reporter
Test Summary: apparent KD of K4 kissing-loop reporter; higher = weaker reporter binding
Condition Summary: Eterna round: R107; input ligand: tryptophan 2.4 mM
Only the number, expressed in nM, is required.

Use the examples below as a reference point.
CACCAUGAAUUCUCUAGGAGUGAUGUUUUUCGAGGACCGGUACGGCCGCCACUCGGACGAGGACCGUGGGAGCGGCGAAGCGACU [wwegmullin] ... 101
UUCAGGUGUUCGGCCGCCACUCCAGUGAUGUUGGAGUGGCUUCACAAGGGCCAGGACAAUGUAAGGAGGACCGGGAAUAUCGCAG [Quonerar] ... 134
AAAUAAAGCAGUCAGCCAGUGAUGUUGGAAGGAGCGUGCGAAAGCACAGGUAGGUCGCCAAAACCUAAUACUGGCUGCUAAAUAA [#SwitchBubble 1 #K4Early] ... 542
CGCCACGACUGAAGGAGCGCGCCAGUGAUGUUGGACGGCUUUGUCAAGGAAACUGCACCGGUGCAGGUAGGUCGCAGUUCGUGGU [Quisbiri] ... 362
AGUUCUUGCCGAAGGAGCGAGGCAGAGUGAUGUUCUGCACGAGGUCGAAAGACCUCGCUGCCUCAGGUAGGUCGCGGCAUGAACA [Omei KL Arginine B Exc A v2] ... 1300
GUCGGGACUCGAGGAUAUCAGUGGAGGCCAGUGAUGUUGGCCGUCCCGGUAGUUAAAAUUUUACCCUGAGAAGGCGAUUUCUGUC [Veceinusqu] ... 138

[Q] Request body: readout apparent KD of K4 kissing-loop reporter, system K4 kissing-loop RNA reporter, query UGACUGGACUGAAGGAGCGCUAAAACUCCUAGUGAUGUUGGGAAAUAGAGACAAAGUCUCAAGCAGGUAGGUCGCAGUCUAGUCU [ArgBS 23 #SwitchBubble #StaticStem] . Return the value.
[A] 169

[Q] Request body: readout apparent KD of K4 kissing-loop reporter, system K4 kissing-loop RNA reporter, query AGGAUCACGUCAGUGAUGUUGACAAGAGAUACCAGAGACGAAAGUCUCCCUUGGCAGCUCACUGUGAUCCGUGACAAAGGUCACA [Omei KL hio A SS C v1] . Return the value.
[A] 76

[Q] Request body: readout apparent KD of K4 kissing-loop reporter, system K4 kissing-loop RNA reporter, query UAAUUUAUUUCUUUUAUAUAAUAAUCAGAUACCAGUGAUUAAUGUCACCCUUGGCAGCUGUAUAGAGUGAUGUUCUAAUGCUUAA [JR_SSTheophyA_Sub022] . Return the value.
[A] 147

[Q] Request body: readout apparent KD of K4 kissing-loop reporter, system K4 kissing-loop RNA reporter, query AGCAGUCAACUCGAAACCAUCGAAGAUGGUCGAGGACCGGUACGGCCGCCACUCGGAGUGAUGUUCCGAAGACUGCAAAAUAAAA [#SwitchBubble 14] . Return the value.
[A] 477

[Q] Request body: readout apparent KD of K4 kissing-loop reporter, system K4 kissing-loop RNA reporter, query UCGAUGGUCAGCGAUACCAGCCCAGUGAUGUUGGGCACAUGGUUGCGGAAAAUCCCAUUGGGCCCUUGGCAGCGCUUGCAUGGGU [Titiquesan] . Return the value.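 Also: bound reporter read as fluorescence of individual clusters on recovered sequencing chips by microscopy, with normalized cluster intensities fitted with a binding model.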
[A] 116
